target: Cyclin-dependent kinase 5/CDK5 activator 1 (Homo sapiens); test: Inhibition of human Cdk5/p35 activity; format: protein-complex assay
Sequence (Q00535 whole entry): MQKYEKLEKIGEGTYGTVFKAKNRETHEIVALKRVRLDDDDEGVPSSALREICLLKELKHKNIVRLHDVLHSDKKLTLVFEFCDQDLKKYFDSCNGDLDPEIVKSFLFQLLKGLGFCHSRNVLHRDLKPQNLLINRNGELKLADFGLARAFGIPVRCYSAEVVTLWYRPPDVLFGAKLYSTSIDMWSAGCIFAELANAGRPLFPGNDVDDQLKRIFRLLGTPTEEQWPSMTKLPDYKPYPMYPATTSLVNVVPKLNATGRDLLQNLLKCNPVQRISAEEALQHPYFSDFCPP
Sequence (Q15078 whole entry, further chain): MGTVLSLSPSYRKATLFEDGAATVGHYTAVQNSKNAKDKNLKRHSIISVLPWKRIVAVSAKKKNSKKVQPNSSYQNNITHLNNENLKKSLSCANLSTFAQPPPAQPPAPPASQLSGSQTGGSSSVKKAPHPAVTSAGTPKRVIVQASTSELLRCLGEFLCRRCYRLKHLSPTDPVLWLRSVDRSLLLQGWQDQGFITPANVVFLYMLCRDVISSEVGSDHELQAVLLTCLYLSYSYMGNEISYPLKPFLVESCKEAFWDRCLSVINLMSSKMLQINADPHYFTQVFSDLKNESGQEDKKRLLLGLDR
RECORDED_ENDPOINT: pEC50
One number for each entry, as −log10 of the molar value.

## Task Tell me the measured pEC50 of CCCn1cnc2c(NCc3ccc(C)s3)nc(N[C@H](CC)CO)nc21 , please.
## Result 5.52

###

biological target: Cyclin-dependent kinase 2/cyclin A (Homo sapiens); assay: Inhibition of human Cdk2/cyclin A activity
For each of the molecules below, state its pEC50.
Give bare numbers, as −log10 of the molar value.

> print(dat)
                             smiles.string  quantitative.result
1  CCCn1cnc2c(NCC3CC3)nc(N[C@H](CC)CO)nc21                 5.44

Take each entry in turn and give its pEC50.
1. CCCn1cnc2c(NCc3ccc(C)s3)nc(N[C@H](CC)CO)nc21
2. CC[C@H](CO)Nc1nc(NCc2ccc(C)s2)c2ncn(C)c2n1

## Result
1. 5.48
2. 5.52

###

target: Myosin light chain kinase, smooth muscle (Homo sapiens, UniProt Q15746); test: Inhibition of human MLCK
Sequence (Q15746 whole entry): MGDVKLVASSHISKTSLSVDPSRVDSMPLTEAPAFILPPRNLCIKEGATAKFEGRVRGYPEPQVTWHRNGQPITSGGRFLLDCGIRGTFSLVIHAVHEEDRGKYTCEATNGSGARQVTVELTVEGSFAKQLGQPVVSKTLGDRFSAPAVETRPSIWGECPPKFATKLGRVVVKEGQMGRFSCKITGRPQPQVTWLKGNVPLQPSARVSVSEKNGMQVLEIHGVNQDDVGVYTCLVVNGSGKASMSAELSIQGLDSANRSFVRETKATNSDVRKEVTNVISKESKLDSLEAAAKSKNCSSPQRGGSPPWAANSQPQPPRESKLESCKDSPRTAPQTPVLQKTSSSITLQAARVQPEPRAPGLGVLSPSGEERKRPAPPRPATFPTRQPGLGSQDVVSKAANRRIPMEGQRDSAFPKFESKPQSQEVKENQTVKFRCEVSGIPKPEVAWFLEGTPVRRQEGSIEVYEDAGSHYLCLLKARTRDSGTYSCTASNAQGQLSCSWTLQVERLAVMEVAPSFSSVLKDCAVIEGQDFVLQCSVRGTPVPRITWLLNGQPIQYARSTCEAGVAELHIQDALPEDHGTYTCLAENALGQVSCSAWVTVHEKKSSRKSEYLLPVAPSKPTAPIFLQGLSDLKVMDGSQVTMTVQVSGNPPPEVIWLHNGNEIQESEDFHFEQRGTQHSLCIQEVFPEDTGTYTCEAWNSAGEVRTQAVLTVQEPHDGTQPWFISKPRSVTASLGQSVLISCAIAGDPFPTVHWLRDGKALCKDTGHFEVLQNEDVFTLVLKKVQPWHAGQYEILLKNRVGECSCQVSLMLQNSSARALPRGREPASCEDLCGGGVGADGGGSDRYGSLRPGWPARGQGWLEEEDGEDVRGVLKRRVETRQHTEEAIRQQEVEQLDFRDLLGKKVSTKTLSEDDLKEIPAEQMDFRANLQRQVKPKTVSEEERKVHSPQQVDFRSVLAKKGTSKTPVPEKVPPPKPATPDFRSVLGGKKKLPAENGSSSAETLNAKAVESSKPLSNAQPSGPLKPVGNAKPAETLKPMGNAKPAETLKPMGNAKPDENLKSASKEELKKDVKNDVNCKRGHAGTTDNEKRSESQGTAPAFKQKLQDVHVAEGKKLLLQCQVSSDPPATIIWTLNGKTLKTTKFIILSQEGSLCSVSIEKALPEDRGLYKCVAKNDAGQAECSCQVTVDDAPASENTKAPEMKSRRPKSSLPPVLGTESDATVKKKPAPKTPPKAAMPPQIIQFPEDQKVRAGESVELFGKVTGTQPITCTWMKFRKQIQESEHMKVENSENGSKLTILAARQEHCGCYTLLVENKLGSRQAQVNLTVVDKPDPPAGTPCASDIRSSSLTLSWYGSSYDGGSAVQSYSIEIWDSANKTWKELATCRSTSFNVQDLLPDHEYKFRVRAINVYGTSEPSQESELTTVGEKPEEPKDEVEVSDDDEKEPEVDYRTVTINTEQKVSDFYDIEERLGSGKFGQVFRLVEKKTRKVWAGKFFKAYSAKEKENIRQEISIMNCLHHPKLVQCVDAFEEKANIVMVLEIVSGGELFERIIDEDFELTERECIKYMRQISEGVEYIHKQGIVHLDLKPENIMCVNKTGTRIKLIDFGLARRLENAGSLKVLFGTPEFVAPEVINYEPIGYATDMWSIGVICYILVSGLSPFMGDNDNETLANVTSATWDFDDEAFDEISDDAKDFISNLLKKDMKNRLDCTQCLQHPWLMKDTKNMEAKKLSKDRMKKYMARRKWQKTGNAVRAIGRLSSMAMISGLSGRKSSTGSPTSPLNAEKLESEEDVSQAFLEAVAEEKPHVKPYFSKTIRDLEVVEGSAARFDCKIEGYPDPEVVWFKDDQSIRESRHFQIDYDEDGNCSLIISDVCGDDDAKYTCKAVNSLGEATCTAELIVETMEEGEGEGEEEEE
pEC50: −log10 of the molar value.
RECORDED_ENDPOINT: pEC50

## Task Tell me the measured pEC50 of CCCn1cnc2c(NCc3ccc(C)s3)nc(N[C@H](CC)CO)nc21 , please.
## Result < 4.70

###

target: Voltage-dependent N-type calcium channel subunit alpha-1B (Homo sapiens); experiment: Agonist activity at N-type Cav2.2 channel expressed in tsA201 cell assessed as calcium current by whole-cell patch clamp method
Sequence (Q00975 whole entry): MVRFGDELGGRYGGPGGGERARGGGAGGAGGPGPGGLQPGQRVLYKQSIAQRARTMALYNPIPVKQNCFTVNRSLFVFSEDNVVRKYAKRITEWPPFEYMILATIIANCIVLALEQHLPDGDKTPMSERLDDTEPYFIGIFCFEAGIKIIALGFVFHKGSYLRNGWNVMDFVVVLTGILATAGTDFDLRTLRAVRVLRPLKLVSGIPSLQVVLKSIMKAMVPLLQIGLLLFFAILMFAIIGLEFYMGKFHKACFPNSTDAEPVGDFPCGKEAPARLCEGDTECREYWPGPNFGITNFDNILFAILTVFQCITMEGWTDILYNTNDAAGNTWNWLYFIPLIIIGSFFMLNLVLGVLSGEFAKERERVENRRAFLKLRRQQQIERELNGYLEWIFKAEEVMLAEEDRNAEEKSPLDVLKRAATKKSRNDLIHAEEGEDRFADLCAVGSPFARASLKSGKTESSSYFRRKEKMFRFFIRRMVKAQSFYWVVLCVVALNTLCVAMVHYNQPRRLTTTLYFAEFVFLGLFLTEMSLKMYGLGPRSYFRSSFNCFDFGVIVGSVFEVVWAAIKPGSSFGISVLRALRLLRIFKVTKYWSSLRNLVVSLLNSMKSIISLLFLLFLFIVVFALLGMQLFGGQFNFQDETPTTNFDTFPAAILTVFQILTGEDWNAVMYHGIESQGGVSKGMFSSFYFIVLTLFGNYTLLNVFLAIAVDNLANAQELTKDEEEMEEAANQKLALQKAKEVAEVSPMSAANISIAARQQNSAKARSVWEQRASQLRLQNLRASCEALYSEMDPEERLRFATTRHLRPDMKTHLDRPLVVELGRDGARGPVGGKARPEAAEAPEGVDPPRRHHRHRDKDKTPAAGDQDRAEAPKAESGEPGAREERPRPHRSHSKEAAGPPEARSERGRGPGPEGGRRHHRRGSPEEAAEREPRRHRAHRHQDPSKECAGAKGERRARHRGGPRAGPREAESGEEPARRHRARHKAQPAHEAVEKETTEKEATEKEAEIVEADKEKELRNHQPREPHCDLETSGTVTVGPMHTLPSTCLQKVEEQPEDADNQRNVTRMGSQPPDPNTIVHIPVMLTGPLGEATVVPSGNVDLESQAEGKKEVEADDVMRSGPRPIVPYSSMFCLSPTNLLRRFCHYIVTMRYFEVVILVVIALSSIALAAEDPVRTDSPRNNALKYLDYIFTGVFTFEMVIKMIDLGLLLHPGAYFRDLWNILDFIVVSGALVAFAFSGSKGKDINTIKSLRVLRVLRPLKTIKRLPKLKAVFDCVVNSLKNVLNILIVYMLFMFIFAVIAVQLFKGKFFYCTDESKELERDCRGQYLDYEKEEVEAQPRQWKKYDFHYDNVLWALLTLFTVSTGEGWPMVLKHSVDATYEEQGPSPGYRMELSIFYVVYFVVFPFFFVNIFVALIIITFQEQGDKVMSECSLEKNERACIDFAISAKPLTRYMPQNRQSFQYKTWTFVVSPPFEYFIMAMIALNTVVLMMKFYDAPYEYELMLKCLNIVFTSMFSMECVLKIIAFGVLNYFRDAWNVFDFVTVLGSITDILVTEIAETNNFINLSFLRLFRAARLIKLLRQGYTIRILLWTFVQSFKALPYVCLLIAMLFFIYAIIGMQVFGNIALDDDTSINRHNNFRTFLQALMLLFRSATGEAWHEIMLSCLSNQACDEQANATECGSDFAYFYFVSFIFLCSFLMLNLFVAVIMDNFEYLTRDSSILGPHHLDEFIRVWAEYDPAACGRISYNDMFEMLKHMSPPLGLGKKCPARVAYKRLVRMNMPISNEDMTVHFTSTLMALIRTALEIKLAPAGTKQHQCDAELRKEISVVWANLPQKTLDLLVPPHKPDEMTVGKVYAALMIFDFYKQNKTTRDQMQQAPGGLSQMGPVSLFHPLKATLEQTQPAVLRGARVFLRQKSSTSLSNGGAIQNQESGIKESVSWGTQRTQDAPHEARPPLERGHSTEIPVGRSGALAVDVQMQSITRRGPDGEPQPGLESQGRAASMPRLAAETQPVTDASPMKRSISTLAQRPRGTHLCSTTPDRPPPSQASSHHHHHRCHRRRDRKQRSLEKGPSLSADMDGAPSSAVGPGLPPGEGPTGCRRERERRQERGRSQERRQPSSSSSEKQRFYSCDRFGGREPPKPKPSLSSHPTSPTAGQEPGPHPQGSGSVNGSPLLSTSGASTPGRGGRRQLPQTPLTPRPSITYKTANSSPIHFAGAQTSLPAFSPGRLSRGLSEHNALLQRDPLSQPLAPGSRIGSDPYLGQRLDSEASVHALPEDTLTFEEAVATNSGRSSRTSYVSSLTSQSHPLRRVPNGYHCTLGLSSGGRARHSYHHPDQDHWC
For each of the compounds below, state its EC50.

> print(dat)
                                   compound                       experimental.target     result
1  CC[C@H](CO)Nc1nc(NCc2cccc(C(F)(F)F)c2)c2ncn(C(C)C)c2n1  Voltage-dependent N-type calcium channel subunit alpha-1B (Homo sapiens)   > 100 µM
2   CCCn1cnc2c(NCC3CC3)nc(N[C@H](CC)CO)nc21  Voltage-dependent N-type calcium channel subunit alpha-1B (Homo sapiens)   > 100 µM
3  CC[C@H](CO)Nc1nc(NC(c2ccccc2)c2ccccc2)c2ncn(C)c2n1  Voltage-dependent N-type calcium channel subunit alpha-1B (Homo sapiens)   > 100 µM
4  Cn1cnc2c(NCc3ccccc3)nc(NCCO)nc21 [OLOMOUCINE]  Voltage-dependent N-type calcium channel subunit alpha-1B (Homo sapiens)  > 1000 µM
5      CC(C)n1cnc2c(NCc3ccccc3)nc(NCCO)nc21  Voltage-dependent N-type calcium channel subunit alpha-1B (Homo sapiens)  > 1000 µM

Take each entry in turn and give its EC50.
1. CCCn1cnc2c(NCc3ccc(C)s3)nc(N[C@H](CC)CO)nc21
2. Cn1cnc2nc(NCCO)nc(NCc3ccccc3)c21
3. CCCn1cnc2c(NCc3cccnc3)nc(N[C@H](CC)CO)nc21
4. CC[C@H](CO)Nc1nc(NCC2CC2)c2ncn(C)c2n1
5. CC[C@H](CO)Nc1nc(NCCc2ccccc2)c2ncn(C)c2n1

## Result
7.21 µM
> 1000 µM
> 100 µM
> 100 µM
> 100 µM

Take each entry in turn and give its EC50.
1. CCCn1cnc2c(NCCc3ccccc3)nc(N[C@H](CC)CO)nc21
2. CC[C@H](CO)Nc1nc(NCc2cccnc2)c2ncn(C)c2n1

## Result
> 100 µM
> 100 µM

Take each entry in turn and give its EC50.
1. CC[C@H](CO)Nc1nc(NCc2ccc(C)s2)c2ncn(C(C)C)c2n1
2. O=c1[nH]c2ccccc2c2[nH]c3ccc(Br)cc3c12
3. CN(C)CCNc1nc(NCc2ccccc2)c2ncn(C)c2n1
4. O=Nc1c(-c2c(O)[nH]c3ccccc23)[nH]c2ccccc12 [INDIRUBIN-3-MONOXIME]

## Result
1: 11.3 µM; 2: > 1000 µM; 3: > 1000 µM; 4: > 1000 µM

Take each entry in turn and give its EC50.
1. CC[C@H](CO)Nc1nc(NCc2cccnc2)c2ncn(C(C)C)c2n1
2. CC[C@H](CO)Nc1nc(N(C)Cc2ccccc2)c2ncn(C(C)C)c2n1
3. CCCn1cnc2c(NCc3ccc(C(F)(F)F)cc3)nc(N[C@H](CC)CO)nc21
4. CCCn1cnc2c(NCc3ccccc3)nc(N[C@H](CC)CO)nc21
5. CC[C@H](CO)Nc1nc(NCc2ccc(-c3ccccc3)cc2)c2ncn(C)c2n1
6. CC[C@H](CO)Nc1nc(NCc2ccccc2)c2ncn(C)c2n1

## Result
["> 100 µM", "> 1000 µM", "> 100 µM", "14.2 µM", "> 100 µM", "> 70 µM"]
